target: PI3K δ (Homo sapiens); construct: purchased Upstate / Millipore Corporation; experiment: PI 3-Kinase (human) HTRF assay, PI3K δ; assay type: biochemical; conditions: read-out: PI3K δ IC50
Sequence (O00329 whole entry): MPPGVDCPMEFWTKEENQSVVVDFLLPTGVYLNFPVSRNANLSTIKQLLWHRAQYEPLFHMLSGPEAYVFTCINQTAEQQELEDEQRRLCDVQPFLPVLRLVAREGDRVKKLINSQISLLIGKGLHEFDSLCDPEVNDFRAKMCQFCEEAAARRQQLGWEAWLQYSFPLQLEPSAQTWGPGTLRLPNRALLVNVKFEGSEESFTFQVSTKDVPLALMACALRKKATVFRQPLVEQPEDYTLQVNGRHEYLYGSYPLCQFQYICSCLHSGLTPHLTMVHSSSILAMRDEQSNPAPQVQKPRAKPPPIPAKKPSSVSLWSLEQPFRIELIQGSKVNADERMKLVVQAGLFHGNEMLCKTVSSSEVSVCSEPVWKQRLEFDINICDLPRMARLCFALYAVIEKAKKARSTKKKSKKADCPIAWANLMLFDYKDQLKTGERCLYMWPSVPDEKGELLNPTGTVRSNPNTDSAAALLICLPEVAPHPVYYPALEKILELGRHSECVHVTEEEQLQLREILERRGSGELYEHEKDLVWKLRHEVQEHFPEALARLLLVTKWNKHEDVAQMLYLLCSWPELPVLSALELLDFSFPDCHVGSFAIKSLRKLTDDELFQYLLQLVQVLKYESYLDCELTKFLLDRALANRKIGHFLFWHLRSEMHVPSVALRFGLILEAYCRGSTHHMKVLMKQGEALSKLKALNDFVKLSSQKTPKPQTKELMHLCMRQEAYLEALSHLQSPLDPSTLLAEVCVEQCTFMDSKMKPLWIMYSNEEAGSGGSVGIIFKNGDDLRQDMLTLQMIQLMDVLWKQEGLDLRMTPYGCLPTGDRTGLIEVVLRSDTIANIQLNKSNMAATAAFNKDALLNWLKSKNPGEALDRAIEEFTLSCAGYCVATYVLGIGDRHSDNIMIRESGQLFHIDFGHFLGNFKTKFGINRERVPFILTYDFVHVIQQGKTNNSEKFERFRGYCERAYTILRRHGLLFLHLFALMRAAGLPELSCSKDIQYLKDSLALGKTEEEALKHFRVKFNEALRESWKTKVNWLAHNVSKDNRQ
Sequence (P27986 whole entry partner): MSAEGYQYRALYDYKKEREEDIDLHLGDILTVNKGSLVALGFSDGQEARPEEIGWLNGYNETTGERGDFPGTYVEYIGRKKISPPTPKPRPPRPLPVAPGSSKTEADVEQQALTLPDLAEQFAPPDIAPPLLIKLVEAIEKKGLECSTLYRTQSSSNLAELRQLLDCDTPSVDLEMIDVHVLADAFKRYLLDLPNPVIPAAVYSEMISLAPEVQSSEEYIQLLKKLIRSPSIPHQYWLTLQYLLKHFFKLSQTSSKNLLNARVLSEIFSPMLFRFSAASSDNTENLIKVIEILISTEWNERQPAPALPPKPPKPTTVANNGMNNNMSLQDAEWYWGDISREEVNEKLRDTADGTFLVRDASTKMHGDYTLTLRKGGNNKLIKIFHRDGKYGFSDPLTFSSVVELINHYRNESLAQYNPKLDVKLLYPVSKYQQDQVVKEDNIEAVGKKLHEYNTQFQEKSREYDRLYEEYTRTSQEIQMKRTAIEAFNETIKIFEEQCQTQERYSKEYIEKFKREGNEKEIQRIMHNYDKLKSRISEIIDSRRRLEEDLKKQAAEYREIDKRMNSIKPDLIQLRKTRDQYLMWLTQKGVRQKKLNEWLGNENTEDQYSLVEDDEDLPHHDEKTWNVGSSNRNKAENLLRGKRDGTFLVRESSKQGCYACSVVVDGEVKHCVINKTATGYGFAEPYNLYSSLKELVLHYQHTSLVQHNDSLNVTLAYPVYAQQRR
pIC50: −log10 of the molar value.
measured.property: pIC50

molecule="CN1CCN(n2cnc3ccc(-c4ccc5oc(N)nc5c4)cc3c2=O)CC1 [Compound 518]" system_under_test="PI3K δ (Homo sapiens)" value_measured="< 5.00"
molecule=Nc1nc2cc(-c3ccc4ncc(C(=O)N5CC[C@@H](F)C5)n4c3)ccc2o1 system_under_test="PI3K δ (Homo sapiens)" value_measured="> 5.00"
molecule=CN1CCC(Nc2ncnc3ccc(-c4ccc5oc(N)nc5c4)nc23)CC1 system_under_test="PI3K δ (Homo sapiens)" value_measured="> 6.00"
molecule=CN1CCN([C@@H]2CCN(c3cnc4ccc(-c5ccc6oc(N)nc6c5)cc4n3)C2)CC1 system_under_test="PI3K δ (Homo sapiens)" value_measured="> 5.00"
molecule=Nc1cn2cc(-c3ccc4nc(N)oc4c3)ccc2n1 system_under_test="PI3K δ (Homo sapiens)" value_measured="< 5.00"

====

molecular target: PI3K γ (p110γ) (Homo sapiens); construct: purchased Upstate / Millipore Corporation; test: PI 3-Kinase (human) HTRF assay, PI3K γ; format: biochemical; conditions: read-out: PI3K γ IC50
Sequence (P48736 whole entry): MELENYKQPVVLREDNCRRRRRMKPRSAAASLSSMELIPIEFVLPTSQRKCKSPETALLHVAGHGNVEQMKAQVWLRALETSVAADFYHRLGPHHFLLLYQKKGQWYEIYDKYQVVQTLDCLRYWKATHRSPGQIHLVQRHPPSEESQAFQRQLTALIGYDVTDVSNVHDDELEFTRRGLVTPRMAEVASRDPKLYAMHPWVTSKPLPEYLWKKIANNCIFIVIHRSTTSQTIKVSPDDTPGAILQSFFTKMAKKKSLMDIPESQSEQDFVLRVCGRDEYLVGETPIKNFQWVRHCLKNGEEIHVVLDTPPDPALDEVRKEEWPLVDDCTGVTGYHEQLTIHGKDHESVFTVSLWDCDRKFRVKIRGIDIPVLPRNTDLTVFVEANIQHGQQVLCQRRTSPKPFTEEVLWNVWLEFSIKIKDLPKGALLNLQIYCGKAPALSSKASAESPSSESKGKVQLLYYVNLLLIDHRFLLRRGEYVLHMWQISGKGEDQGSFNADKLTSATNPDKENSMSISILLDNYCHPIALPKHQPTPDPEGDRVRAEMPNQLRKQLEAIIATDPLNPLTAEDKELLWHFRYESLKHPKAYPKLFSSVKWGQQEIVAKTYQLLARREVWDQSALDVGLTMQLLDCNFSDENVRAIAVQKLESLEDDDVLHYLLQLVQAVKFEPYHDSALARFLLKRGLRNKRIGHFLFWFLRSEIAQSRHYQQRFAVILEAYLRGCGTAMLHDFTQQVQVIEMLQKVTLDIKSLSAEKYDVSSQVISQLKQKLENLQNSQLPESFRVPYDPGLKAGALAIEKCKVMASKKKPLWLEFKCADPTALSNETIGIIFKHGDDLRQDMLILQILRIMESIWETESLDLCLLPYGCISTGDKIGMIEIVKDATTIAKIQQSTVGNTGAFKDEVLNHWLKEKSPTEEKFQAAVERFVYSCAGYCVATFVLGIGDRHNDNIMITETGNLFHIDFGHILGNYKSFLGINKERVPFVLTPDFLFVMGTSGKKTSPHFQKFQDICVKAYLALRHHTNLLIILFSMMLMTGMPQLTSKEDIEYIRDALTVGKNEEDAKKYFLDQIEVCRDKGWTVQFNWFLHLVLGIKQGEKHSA
pIC50: −log10 of the molar value.
# Lookup of reported pIC50 keyed by entry
measured.property: pIC50

mol=Nc1nc2cc(-c3ccc4ncc(N5CC(N6CC[C@H](O)C6)C5)nc4c3)ccc2o1 system_under_test="PI3K γ (p110γ) (Homo sapiens)" measured_property=pIC50 value_measured="> 6.00"
mol=Cc1cc(-c2ccc3oc(N)nc3c2)cc2c(-c3ccncc3)cnn12 system_under_test="PI3K γ (p110γ) (Homo sapiens)" measured_property=pIC50 value_measured="> 7.00"
mol=Nc1nc2cc(-c3ccc4ncc(C(=O)N5CC(N6CCOCC6)C5)n4c3)ccc2o1 system_under_test="PI3K γ (p110γ) (Homo sapiens)" measured_property=pIC50 value_measured="> 6.00"
mol=C[C@@H]1CN(C2CN(c3cnc4ccc(-c5ccc6oc(N)nc6c5)cc4n3)C2)CCN1 system_under_test="PI3K γ (p110γ) (Homo sapiens)" measured_property=pIC50 value_measured="> 5.00"

====

biological target: PI3K α (p110α/p85α) (Homo sapiens, UniProt P42336); construct: purchased Upstate / Millipore Corporation; test: PI 3-Kinase (human) HTRF assay, PI3K α; format: biochemical; settings: read-out: PI3K α IC50
Sequence (P42336 whole entry): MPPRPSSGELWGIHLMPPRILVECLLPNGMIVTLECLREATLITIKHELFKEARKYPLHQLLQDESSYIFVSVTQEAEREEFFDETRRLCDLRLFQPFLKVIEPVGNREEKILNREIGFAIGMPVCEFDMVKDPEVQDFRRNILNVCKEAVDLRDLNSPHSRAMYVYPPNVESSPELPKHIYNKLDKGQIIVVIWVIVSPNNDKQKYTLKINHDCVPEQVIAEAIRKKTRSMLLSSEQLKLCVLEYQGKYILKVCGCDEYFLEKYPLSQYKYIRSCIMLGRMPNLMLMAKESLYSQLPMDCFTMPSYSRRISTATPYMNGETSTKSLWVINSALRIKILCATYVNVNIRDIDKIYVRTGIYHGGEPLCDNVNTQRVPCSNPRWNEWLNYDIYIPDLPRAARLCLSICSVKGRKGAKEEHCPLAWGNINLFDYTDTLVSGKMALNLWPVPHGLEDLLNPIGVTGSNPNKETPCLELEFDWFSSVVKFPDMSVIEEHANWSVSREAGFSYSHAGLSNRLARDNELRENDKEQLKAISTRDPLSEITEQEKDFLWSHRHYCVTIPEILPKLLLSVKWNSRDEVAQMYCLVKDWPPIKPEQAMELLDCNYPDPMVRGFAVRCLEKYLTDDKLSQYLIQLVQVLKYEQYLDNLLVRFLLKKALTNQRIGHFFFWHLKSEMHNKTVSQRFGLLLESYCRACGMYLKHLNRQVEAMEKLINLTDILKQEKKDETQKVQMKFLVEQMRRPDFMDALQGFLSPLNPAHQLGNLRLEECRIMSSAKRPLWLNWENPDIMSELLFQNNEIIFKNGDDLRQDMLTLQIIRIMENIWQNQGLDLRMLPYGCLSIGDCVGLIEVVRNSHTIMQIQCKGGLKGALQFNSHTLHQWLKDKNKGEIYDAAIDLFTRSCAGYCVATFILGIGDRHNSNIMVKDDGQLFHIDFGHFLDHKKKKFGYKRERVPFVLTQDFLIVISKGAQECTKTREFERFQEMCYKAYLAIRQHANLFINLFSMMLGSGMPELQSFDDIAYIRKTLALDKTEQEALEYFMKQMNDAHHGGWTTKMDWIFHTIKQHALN
Sequence (P27986 whole entry partner): as the sequence (P27986 whole entry partner) above
Each entry below carries its recorded IC50.
measured.property: IC50

compound=Cc1c(-c2ccc3ncc(N4CC(N5CCOCC5)C4)nc3c2)ccc2oc(N)nc12 system_under_test="PI3K α (p110α/p85α) (Homo sapiens, UniProt P42336)" value_measured="> 10000 nM"
compound=Nc1nc2cc(-c3ccc4ncc(C(=O)N5CC(N6CCOCC6)C5)n4c3)ccc2o1 system_under_test="PI3K α (p110α/p85α) (Homo sapiens, UniProt P42336)" value_measured="< 100 nM"
compound=Nc1ncc(-c2ccc3ncc(C(=O)N4CCOCC4)n3c2)cc1C(F)(F)F system_under_test="PI3K α (p110α/p85α) (Homo sapiens, UniProt P42336)" value_measured="< 10000 nM"
compound=Nc1nc2cc(-c3ccc4ncc(-c5cccnc5)n4n3)ccc2o1 system_under_test="PI3K α (p110α/p85α) (Homo sapiens, UniProt P42336)" value_measured="< 100 nM"
compound=Nc1nc2cc(-c3ccc4ncc(C(=O)N5CCS(=O)(=O)CC5)n4c3)ccc2o1 system_under_test="PI3K α (p110α/p85α) (Homo sapiens, UniProt P42336)" value_measured="< 1000 nM"
compound=Cc1ccn(C2CCN(c3cnc4ccc(-c5ccc6oc(N)nc6c5)cc4n3)CC2)n1 system_under_test="PI3K α (p110α/p85α) (Homo sapiens, UniProt P42336)" value_measured="< 100 nM"
compound=CC(C)N1CCN(C(=O)C2CN(c3cnc4ccc(-c5ccc6oc(N)nc6c5)cc4n3)C2)CC1 system_under_test="PI3K α (p110α/p85α) (Homo sapiens, UniProt P42336)" value_measured="< 100 nM"
compound=CC1(C)CN(C2CN(c3cnc4ccc(-c5ccc6oc(N)nc6c5)cc4n3)C2)CCN1 system_under_test="PI3K α (p110α/p85α) (Homo sapiens, UniProt P42336)" value_measured="< 100 nM"
compound=CN1CCCN(c2cnc3ccc(-c4ccc5oc(N)nc5c4)cc3n2)CC1 system_under_test="PI3K α (p110α/p85α) (Homo sapiens, UniProt P42336)" value_measured="< 1000 nM"
compound=Nc1nc2cc(-c3ccc4ncc(N5CCC(N)CC5)nc4c3)ccc2o1 system_under_test="PI3K α (p110α/p85α) (Homo sapiens, UniProt P42336)" value_measured="< 100 nM"
compound=Nc1nc2cc(-c3ccc4ncc(N5CCN(C(=O)[C@@H]6CCCN6)CC5)nc4c3)ccc2o1 system_under_test="PI3K α (p110α/p85α) (Homo sapiens, UniProt P42336)" value_measured="< 100 nM"
compound=COc1ncc(-c2ccc3ncc(C(=O)N4CCOCC4)n3c2)cc1NS(C)(=O)=O system_under_test="PI3K α (p110α/p85α) (Homo sapiens, UniProt P42336)" value_measured="< 100 nM"
compound=COC(=O)N1CCC(n2ncc3c(N4CCOCC4)nc(-c4ccc5oc(N)nc5c4)nc32)CC1 system_under_test="PI3K α (p110α/p85α) (Homo sapiens, UniProt P42336)" value_measured="< 1000 nM"
compound=CC(C)N1CCN(C2CN(c3cnc4ccc(-c5ccc6oc(N)nc6c5)cc4n3)C2)CC1 system_under_test="PI3K α (p110α/p85α) (Homo sapiens, UniProt P42336)" value_measured="< 100 nM"
compound=Nc1nc2cc(-c3ccc4ncc(N5CC(N6CC[C@H](O)C6)C5)nc4c3)ccc2o1 system_under_test="PI3K α (p110α/p85α) (Homo sapiens, UniProt P42336)" value_measured="< 100 nM"
compound=Nc1nc2cc(-c3ccc4ncc(C(=O)NCCCN5CCOCC5)n4c3)ccc2o1 system_under_test="PI3K α (p110α/p85α) (Homo sapiens, UniProt P42336)" value_measured="< 1000 nM"
compound=Nc1nc2cc(-c3ccc4nccn4c3)ccc2o1 system_under_test="PI3K α (p110α/p85α) (Homo sapiens, UniProt P42336)" value_measured="< 10000 nM"
compound=Nc1ncc(-c2cnc3ccc(-c4ccc5oc(N)nc5c4)cc3n2)cn1 system_under_test="PI3K α (p110α/p85α) (Homo sapiens, UniProt P42336)" value_measured="< 1000 nM"
compound=Nc1nc2cc(-c3ccc4nnc(C(=O)N5CCOCC5)n4c3)ccc2o1 system_under_test="PI3K α (p110α/p85α) (Homo sapiens, UniProt P42336)" value_measured="> 10000 nM"
compound=Cc1cc(-c2ccc3oc(N)nc3c2)cc2c(C(=O)N3CCOCC3)cnn12 system_under_test="PI3K α (p110α/p85α) (Homo sapiens, UniProt P42336)" value_measured="< 1000 nM"
compound=Nc1nc2cc(-c3ccc4ncc(N5CCOCC5)n4n3)ccc2o1 system_under_test="PI3K α (p110α/p85α) (Homo sapiens, UniProt P42336)" value_measured="< 1000 nM"
compound="CC1CN(C(=O)c2cnc3ccc(-c4ccc5oc(N)nc5c4)cn23)CCO1 (centres unmarked)" system_under_test="PI3K α (p110α/p85α) (Homo sapiens, UniProt P42336)" value_measured="< 100 nM"
compound=CN1CCN(C(=O)c2cnc3ccc(-c4ccc5nc(N)oc5c4)cn23)CC1 system_under_test="PI3K α (p110α/p85α) (Homo sapiens, UniProt P42336)" value_measured="< 1000 nM"
compound=Nc1nc2ccc(-c3ccc4ncc(N5CCOCC5)nc4c3)cc2o1 system_under_test="PI3K α (p110α/p85α) (Homo sapiens, UniProt P42336)" value_measured="< 100 nM"
compound=Nc1nc2cc(-c3ccc4ncc(N5CCNCC5=O)nc4c3)ccc2o1 system_under_test="PI3K α (p110α/p85α) (Homo sapiens, UniProt P42336)" value_measured="< 1000 nM"
compound=CN1CCN(CCCn2cnc3ccc(-c4ccc5oc(N)nc5c4)cc3c2=O)CC1 system_under_test="PI3K α (p110α/p85α) (Homo sapiens, UniProt P42336)" value_measured="< 1000 nM"
compound=Nc1nc2cc(-c3ccc4ncc(C(=O)NC5CCOCC5)n4c3)ccc2o1 system_under_test="PI3K α (p110α/p85α) (Homo sapiens, UniProt P42336)" value_measured="< 100 nM"
compound=Cc1ccn(C2CN(c3cnc4ccc(-c5ccc6oc(N)nc6c5)cc4n3)C2)n1 system_under_test="PI3K α (p110α/p85α) (Homo sapiens, UniProt P42336)" value_measured="< 100 nM"
compound=CN1CCC(Nc2cnc3ccc(-c4ccc5oc(N)nc5c4)cc3n2)CC1 system_under_test="PI3K α (p110α/p85α) (Homo sapiens, UniProt P42336)" value_measured="< 100 nM"
compound=Nc1nc2cc(-c3ccn4ncc(-c5ccncc5)c4n3)ccc2o1 system_under_test="PI3K α (p110α/p85α) (Homo sapiens, UniProt P42336)" value_measured="< 100 nM"
compound=Nc1nc2cccc(-c3ccc4ncc(C(=O)N5CCOCC5)n4c3)c2o1 system_under_test="PI3K α (p110α/p85α) (Homo sapiens, UniProt P42336)" value_measured="< 1000 nM"
compound=Nc1nc2ccc(-c3ccc4nc(N)oc4c3)cc2o1 system_under_test="PI3K α (p110α/p85α) (Homo sapiens, UniProt P42336)" value_measured="> 10000 nM"
compound=CN1CCN(C(=O)c2cnc3ccc(-c4ccc5oc(N)nc5c4)cc3n2)CC1 system_under_test="PI3K α (p110α/p85α) (Homo sapiens, UniProt P42336)" value_measured="< 10000 nM"
compound=CN(C)CC(=O)N1CCC(Nc2ncnc3ccc(-c4ccc5oc(N)nc5c4)cc23)CC1 system_under_test="PI3K α (p110α/p85α) (Homo sapiens, UniProt P42336)" value_measured="< 100 nM"
compound=C[C@H]1CN(C2CN(C(=O)c3cnc4ccc(-c5ccc6oc(N)nc6c5)cn34)C2)CCN1 system_under_test="PI3K α (p110α/p85α) (Homo sapiens, UniProt P42336)" value_measured="< 100 nM"
